A collection of molecules and their measured pIC50
Target: trypsin-activated recombinant human renin (Homo sapiens, UniProt P00797)
Sequence (P00797 67-406): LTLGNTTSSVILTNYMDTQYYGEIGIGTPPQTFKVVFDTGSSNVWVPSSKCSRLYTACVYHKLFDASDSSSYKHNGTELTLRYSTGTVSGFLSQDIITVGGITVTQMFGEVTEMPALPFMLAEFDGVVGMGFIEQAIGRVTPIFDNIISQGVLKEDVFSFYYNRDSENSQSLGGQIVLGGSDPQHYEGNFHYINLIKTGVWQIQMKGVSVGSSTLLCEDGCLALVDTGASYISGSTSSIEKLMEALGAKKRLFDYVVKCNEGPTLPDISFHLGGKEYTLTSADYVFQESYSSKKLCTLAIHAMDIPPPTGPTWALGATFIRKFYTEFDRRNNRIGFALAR
Assay: In vitro renin inhibition, fluorescence of internally quenched peptide substrate
Details: pH 7.0, rt
pIC50: −log10 of the molar value.

Worked examples follow.
CNC[C@H](C[C@H]1CCCOC1)NC(=O)N1CCC[C@@H]([C@@H](OCCNC(=O)OC)c2cc(F)ccc2C)C1 [Compound 5a] | > 8.00
CCOC(=O)NCCO[C@@H](c1cc(F)cc(Cl)c1)[C@@H]1CCCN(C(=O)N[C@H](CNC)C[C@H]2CCCOC2)C1 [Compound 9] | > 8.00
CNC[C@H](C[C@@H]1CCCOC1)NC(=O)N1CCC[C@@H]([C@@H](OCCNC(=O)OC)c2cccc(F)c2)C1 [Compound 2b] | > 8.00

Field pIC50 (system: trypsin-activated recombinant human renin (Homo sapiens, UniProt P00797)) for entry CNC[C@H](C[C@@H]1CCCOC1)NC(=O)N1CCC[C@@H]([C@@H](OCCNC(=O)OC)c2cc(F)cc(Cl)c2)C1 [Compound 3b] = > 8.00

Field pIC50 (system: trypsin-activated recombinant human renin (Homo sapiens, UniProt P00797)) for entry CNC[C@H](C[C@H]1CCCOC1)NC(=O)N1CCC[C@@H]([C@@H](OCCNC(=O)OC)c2cc(F)cc(F)c2)C1 [Compound 4a] = > 8.00

Field pIC50 (system: trypsin-activated recombinant human renin (Homo sapiens, UniProt P00797)) for entry CNC[C@H](C[C@H]1CCCOC1)NC(=O)N1CCC[C@@H]([C@@H](OCCNC(=O)OC)c2ccc(F)c(Cl)c2)C1 [Compound 8] = > 8.00

Field pIC50 (system: trypsin-activated recombinant human renin (Homo sapiens, UniProt P00797)) for entry CNC[C@H](C[C@@H]1CCCOC1)NC(=O)N1CCC[C@@H]([C@@H](OCCNC(=O)OC)c2cc(F)ccc2C)C1 [Compound 5b] = > 7.70

Field pIC50 (system: trypsin-activated recombinant human renin (Homo sapiens, UniProt P00797)) for entry CNC[C@H](C[C@@H]1CCCOC1)NC(=O)N1CCC[C@@H]([C@@H](OCCNC(=O)OC)c2cccc(Cl)c2)C1 [Compound 6b] = > 8.00

Field pIC50 (system: trypsin-activated recombinant human renin (Homo sapiens, UniProt P00797)) for entry CNC[C@H](C[C@H]1CCCOC1)NC(=O)N1CCC[C@@H]([C@@H](OCCNC(=O)OC)c2cccc(Cl)c2)C1 [Compound 6a] = > 9.00

====

Molecular target: plasma renin activity (PRA) (Homo sapiens)
Construct: 87.3% of pooled mixed-gender human plasma stabilized with EDTA
Sequence (P00797 67-406): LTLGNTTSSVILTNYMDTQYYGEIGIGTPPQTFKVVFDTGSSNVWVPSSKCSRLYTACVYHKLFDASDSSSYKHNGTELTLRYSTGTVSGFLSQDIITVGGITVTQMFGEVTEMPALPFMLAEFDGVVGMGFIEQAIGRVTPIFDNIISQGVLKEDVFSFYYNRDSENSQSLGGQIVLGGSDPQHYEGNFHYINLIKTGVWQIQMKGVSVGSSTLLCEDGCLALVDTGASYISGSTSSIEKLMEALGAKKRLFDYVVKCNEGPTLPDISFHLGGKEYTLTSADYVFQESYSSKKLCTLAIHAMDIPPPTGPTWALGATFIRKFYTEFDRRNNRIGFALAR
Experiment: In vitro plasma renin activity (PRA) in human plasma, angiotensin I radioimmunoassay
Conditions: pooled human plasma, 37° C., 90 min, IC50 of plasma renin activity
A collection of molecules and their measured IC50

Worked examples follow.
CNC[C@H](C[C@H]1CCCOC1)NC(=O)N1CCC[C@@H]([C@@H](OCCNC(=O)OC)c2cc(F)cc(Cl)c2)C1 [Compound 3a] | < 1 nM
CNC[C@H](C[C@H]1CCCOC1)NC(=O)N1CCC[C@@H]([C@@H](OCCNC(=O)OC)c2cc(Cl)ccc2C)C1 [Compound 10] | < 1 nM
CNC[C@H](C[C@@H]1CCCOC1)NC(=O)N1CCC[C@@H]([C@@H](OCCNC(=O)OC)c2cc(F)cc(Cl)c2)C1 [Compound 3b] | < 10 nM
CNC[C@H](CC1CCCOC1)NC(=O)N1CCC[C@@H]([C@@H](OCCNC(=O)OC)c2cccc(C)c2)C1 (stereo partly drawn) [Compound 1] | < 10 nM
CNC[C@H](C[C@H]1CCCOC1)NC(=O)N1CCC[C@@H]([C@@H](OCCNC(=O)OC)c2ccccc2)C1 [Compound 7] | < 50 nM
CNC[C@H](C[C@H]1CCCOC1)NC(=O)N1CCC[C@@H]([C@@H](OCCNC(=O)OC)c2cccc(F)c2)C1 [Compound 2a] | < 10 nM
CNC[C@H](C[C@H]1CCCOC1)NC(=O)N1CCC[C@@H]([C@@H](OCCNC(=O)OC)c2cc(F)cc(F)c2)C1 [Compound 4a] | < 10 nM
CNC[C@H](C[C@@H]1CCCOC1)NC(=O)N1CCC[C@@H]([C@@H](OCCNC(=O)OC)c2cc(F)ccc2C)C1 [Compound 5b] | < 50 nM
CCOC(=O)NCCO[C@@H](c1cc(F)cc(Cl)c1)[C@@H]1CCCN(C(=O)N[C@H](CNC)C[C@H]2CCCOC2)C1 [Compound 9] | < 50 nM
CNC[C@H](C[C@H]1CCCOC1)NC(=O)N1CCC[C@@H]([C@@H](OCCNC(=O)OC)c2cccc(Cl)c2)C1 [Compound 6a] | < 1 nM

IC50 in this record for CNC[C@H](C[C@@H]1CCCOC1)NC(=O)N1CCC[C@@H]([C@@H](OCCNC(=O)OC)c2cccc(F)c2)C1 [Compound 2b] : < 20 nM

IC50 in this record for CNC[C@H](C[C@H]1CCCOC1)NC(=O)N1CCC[C@@H]([C@@H](OCCNC(=O)OC)c2cc(F)ccc2C)C1 [Compound 5a] : < 10 nM

IC50 in this record for CNC[C@H](C[C@@H]1CCCOC1)NC(=O)N1CCC[C@@H]([C@@H](OCCNC(=O)OC)c2cc(F)cc(F)c2)C1 [Compound 4b] : < 50 nM

IC50 in this record for CNC[C@H](C[C@@H]1CCCOC1)NC(=O)N1CCC[C@@H]([C@@H](OCCNC(=O)OC)c2cccc(Cl)c2)C1 [Compound 6b] : < 10 nM

IC50 in this record for CNC[C@H](C[C@H]1CCCOC1)NC(=O)N1CCC[C@@H]([C@@H](OCCNC(=O)OC)c2ccc(F)c(Cl)c2)C1 [Compound 8] : < 10 nM
